# Tested on: CCRF-CEM leukemia
# experiment_notes: NCI tumour cell line growth inhibition, 48 h

>  <compound>
CC(NNC(=S)N1CCN(c2ccccn2)CC1)c1nccc2ccccc12 (stereo unspecified)

>  <TGI>
1.02 µM

$$$$
>  <compound>
CC1CN(c2cc3c(cc2F)c(=O)c(C(=O)O)cn3-c2ccc(N3CCN(C)CC3)cn2)CC(C)N1 (stereo unspecified)

>  <TGI>
> 100 µM

$$$$
>  <compound>
CCC(=O)NC1=C(Cl)C(=O)C(NC(=O)CC)=C(Cl)C1=O

>  <TGI>
> 21.6 µM

$$$$
>  <compound>
COc1nn(C)cc1Nc1nccc(-c2c[nH]c3c(NC(=O)[C@@H](C)N4CCN(C)CC4)cccc23)n1

>  <TGI>
> 100 µM

$$$$
>  <compound>
COc1cc2[nH]c3c(c2cc1OC)CCN[C@@]31CC[C@@]2(CC3c4c(cc(OC)c(O)c42)CCN3C)C[C@@H]1OC (stereo partly specified)

>  <TGI>
94.5 µM

$$$$
>  <compound>
O/N=C1\C/C(=N\O)c2c(Br)sc(Br)c21

>  <TGI>
37.3 µM

$$$$
>  <compound>
CC1(C)CC(=O)C(CC2C(=O)CCCC2=O)C(=O)C1

>  <TGI>
> 100 µM

$$$$
>  <compound>
Cc1cnc2c(c1)C(=O)N(c1ccc(Oc3ccccc3)cc1)S2(=O)=O

>  <TGI>
> 100 µM

$$$$
>  <compound>
Cc1cc(-c2ccccc2)nc(Nc2cc3ccccc3[nH]2)n1

>  <TGI>
> 100 µM

$$$$
>  <compound>
C[C@]12CCC(=O)C=C1C[C@@H](O)[C@@H]1[C@@H]2CC[C@@]2(C)[C@H]1CC[C@]2(C)O

>  <TGI>
> 100 µM

$$$$
>  <compound>
Cc1ccc(/C=C2\CCCCC2=O)cc1

>  <TGI>
88.8 µM

$$$$
>  <compound>
C[C@@H]1CC[C@@H]2[C@@H]1[C@H](OC(=O)/C=C/C1CCCCC1)[C@]1(C3CCCCC3)C[C@@H](OC(=O)CO)[C@@]2(C)O1

>  <TGI>
34.7 µM

$$$$
>  <compound>
CCCCCCc1ccc(CCCCCCCC(=O)O)o1

>  <TGI>
> 100 µM

$$$$
>  <compound>
Cc1nc(N)c(N2CCN(S(=O)(=O)N(Cc3ccccc3)Cc3ccccc3)CC2)c(=O)[nH]1

>  <TGI>
> 100 µM

$$$$
>  <compound>
Cc1ccsc1C(NC(=O)c1ccccc1)c1cc(Cl)c2cccnc2c1O (stereo unspecified)

>  <TGI>
39 µM

$$$$
>  <compound>
CCC[CH2][Sn]1([CH2]CCC)[O]C(=O)c2cccc([N+](=O)[O-])c2C(=O)[O]1

>  <TGI>
0.683 µM

$$$$
>  <compound>
C[Si](C)(C)OC1(C#N)c2ccccc2CCCC12CCCC2 (stereo unspecified)

>  <TGI>
46 µM

$$$$
>  <compound>
NC1(c2cc3ccccc3s2)CCCCCC1

>  <TGI>
35.4 µM

$$$$
>  <compound>
CCOP(=O)(OCC)/C(=C/n1c(=S)[nH]c2ccccc21)C(=O)OC

>  <TGI>
> 100 µM

$$$$
>  <compound>
CSc1ccc(N2C(=O)C3c4[nH]c5ccccc5c4C4CCC(C(C)(C)C)CC4C3C2=O)cc1 (stereo unspecified)

>  <TGI>
23.5 µM

$$$$
>  <compound>
COC(=O)Nc1nc2ccc(C(=O)c3cccc(I)c3)cc2[nH]1

>  <TGI>
5.26 µM

$$$$
>  <compound>
Clc1ccc2c(NC3CCC(N4CCCCC4)CC3)ccnc2c1 (stereo unspecified)

>  <TGI>
> 100 µM

$$$$
>  <compound>
CCC(O)CCCCCCCCCCCCCCC(=O)O (stereo unspecified)

>  <TGI>
> 100 µM

$$$$
>  <compound>
COC1(OC)CC(CO)(COc2cc(Cl)nc(N)n2)C1

>  <TGI>
> 100 µM

$$$$
>  <compound>
Cc1ccc(/C=c2\c(=O)[nH]c3nc4ccccc4c(=O)n23)cc1

>  <TGI>
> 100 µM

$$$$
>  <compound>
CCOc1ccccc1N=NC1C(=O)N(C(=O)CC(=O)Nc2ccccc2C)N=C1C (stereo unspecified)

>  <TGI>
> 100 µM

$$$$
>  <compound>
COc1ccc2c3ccnc(C(F)(F)F)c3n(CCCCN)c2c1

>  <TGI>
47.8 µM

$$$$
>  <compound>
COC(=O)/C=C1\C(CO[Si](C)(C)C(C)(C)C)OC(n2cc(C)c(=O)n(C)c2=O)C1O[Si](C)(C)C(C)(C)C (stereo unspecified)

>  <TGI>
> 100 µM

$$$$
>  <compound>
O=C(Nc1nc2c(C(F)(F)F)cccc2s1)c1cc(Cl)ccc1O

>  <TGI>
12.5 µM

$$$$
>  <compound>
Cc1ccc2sc3c(NCCCN)nc4ccccc4c3c(=O)c2c1

>  <TGI>
5.61 µM

$$$$
>  <compound>
O=C1C(Cl)N(c2ccc([N+](=O)[O-])cc2)C1c1c[nH]c2ccccc12 (stereo unspecified)

>  <TGI>
> 100 µM

$$$$
>  <compound>
CC1(C)C2CC3C(C)(C2)C31c1cc(Cl)ccc1N (stereo unspecified)

>  <TGI>
33.4 µM

$$$$
>  <compound>
O=C1Sc2ccccc2C(=O)N2CCSC12 (stereo unspecified)

>  <TGI>
> 100 µM

$$$$
>  <compound>
COc1cccc(N2CC(O)=C(c3nc4ccccc4s3)C2=N)c1

>  <TGI>
> 100 µM

$$$$
>  <compound>
Cc1c(C(=O)Nc2ccc(N3C[C@@H](C)O[C@@H](C)C3)nc2)cccc1-c1ccc(OC(F)(F)F)cc1

>  <TGI>
> 100 µM

$$$$
>  <compound>
N=C1C=CC(=C(c2ccc(N)cc2)c2ccc(N)cc2)C=C1

>  <TGI>
19.5 µM

$$$$
>  <compound>
COC(=O)NC(Cc1ccccc1)NC(=O)OC(C)(C)C (stereo unspecified)

>  <TGI>
> 100 µM

$$$$
>  <compound>
COc1c(C(N)=O)cc(-c2ccc(Cl)cc2)cc1-c1ccc(S(N)(=O)=O)cc1

>  <TGI>
> 25 µM

$$$$
>  <compound>
CCn1c(CCCc2nc3c([nH]2)c(=O)n(C)c(=O)n3C)nc2c1c(=O)n(C)c(=O)n2C

>  <TGI>
> 100 µM

$$$$
>  <compound>
COc1cc2c(cc1OCC(=O)Nc1ccc(Cl)cc1C(=O)c1ccccc1Cl)N=CC1CCCN1C2=O (stereo unspecified)

>  <TGI>
> 100 µM

$$$$
>  <compound>
CC(C)[C@@H](C(=O)O[C@@H]1/C=C/C(=O)O[C@@H](C)CCC/C=C/[C@@H]2C[C@H](O)C[C@H]21)N(C)C

>  <TGI>
35.1 µM

$$$$

* * *

# Tested on: OVCAR-4 ovarian
# experiment_notes: NCI tumour cell line growth inhibition, 48 h

>  <compound>
CCN1CCN(c2ccc(NC(=O)Nc3nc4ccc(-c5ccccc5OC)cc4s3)cc2)CC1

>  <GI50>
1680 nM

$$$$
>  <compound>
C=CCc1c(O)c(C(=O)/C=C/c2ccc(Cl)cc2)c(OC)c2ccoc12

>  <GI50>
2770 nM

$$$$
>  <compound>
CCC(=O)NC1=C(Cl)C(=O)C(NC(=O)CC)=C(Cl)C1=O

>  <GI50>
14400 nM

$$$$
>  <compound>
Cc1ccc2sc3c(NCCCN)nc4ccccc4c3c(=O)c2c1

>  <GI50>
2160 nM

$$$$
>  <compound>
Cc1cc(I)cc(CN(C)CCCN2CCC(C)CC2)c1O

>  <GI50>
13100 nM

$$$$
>  <compound>
O=C1C=CC2C3C(=O)N(c4ccccc4)C(=O)C3C1N2Cc1ccccc1 (stereo unspecified)

>  <GI50>
5540 nM

$$$$
>  <compound>
Clc1cnc(Nc2ccc(OCCN3CCCC3)cc2)nc1NCc1ccco1

>  <GI50>
2860 nM

$$$$
>  <compound>
COc1cc(OC)c(/C=C/C(=O)c2c(OC)cc(OC)cc2OC)c(OC)c1

>  <GI50>
5940 nM

$$$$
>  <compound>
CCOC(=O)N1CCC(N=C2CSc3nnc(-c4cc(C(F)(F)F)cc(C(F)(F)F)c4)n3N2)CC1

>  <GI50>
1860 nM

$$$$
>  <compound>
CC1=CC(C)=N/C(=N/S(=O)(=O)c2cc(C)c(Cl)cc2SCc2ccccc2)NN1

>  <GI50>
79100 nM

$$$$
>  <compound>
CN1CCN(Cc2ccc(NC(=O)c3cncc(C#Cc4ccc(N)nc4)c3)cc2C(F)(F)F)CC1

>  <GI50>
460 nM

$$$$

* * *

# Tested on: OVCAR-5 ovarian
# experiment_notes: NCI tumour cell line growth inhibition, 48 h; in the data active = GI50 below about 0.43 µM; inactive = the rest
Possible outcomes: T (active), F (inactive)

>  <compound>
C[C@@H]1CC[C@@H]2[C@@H]1[C@H](OC(=O)/C=C/C1CCCCC1)[C@]1(C3CCCCC3)C[C@@H](OC(=O)CO)[C@@]2(C)O1

>  <class_name>
F

$$$$
>  <compound>
COc1cc(OC)c(/C=C/C(=O)c2c(OC)cc(OC)cc2OC)c(OC)c1

>  <class_name>
F

$$$$
>  <compound>
Nc1nc(-c2ccc3c(c2)/C(=C\c2cc(Br)c(O)c(Br)c2)C(=O)N3)cs1

>  <class_name>
F

$$$$
>  <compound>
CN(C(=O)C(C)(C)C)c1ccccc1I(=O)=O

>  <class_name>
F

$$$$
>  <compound>
CN1C(=O)N(C)C2C1NC(=S)N2/N=C/C=C/c1ccccc1[N+](=O)[O-] (stereo unspecified)

>  <class_name>
F

$$$$
>  <compound>
CCCCCCCCN(CCCCCCCC)CC(O)c1cc(-c2ccccc2)nc2ccc(OC)cc12 (stereo unspecified)

>  <class_name>
F

$$$$
>  <compound>
CC1=CC2(C)/C=C(C)/C=C\CC(O)/C=C3/C=CC(=C4C(=O)OC2(CC1C)C4=O)OC3 (stereo unspecified)

>  <class_name>
F

$$$$
>  <compound>
O=C1/C=C/[C@@H](O)[C@@H]2C[C@@H](O)C[C@H]2/C=C/CCC[C@H](CCO)O1

>  <class_name>
T

$$$$
>  <compound>
CC(C)(C)NCC(O)c1ccccc1Cl (stereo unspecified)

>  <class_name>
F

$$$$
>  <compound>
Cn1nc(C(F)(F)F)cc1-c1cc(Cl)c(OCc2ccc(Cl)cc2)c(-c2ccc(Cl)c(C(F)(F)F)c2)c1O

>  <class_name>
F

$$$$
>  <compound>
CCC[CH2][Sn]1([CH2]CCC)[O]C(=O)c2cccc([N+](=O)[O-])c2C(=O)[O]1

>  <class_name>
F

$$$$
>  <compound>
Nc1ccc(C#Cc2ccccc2C#CCCCCO)cc1

>  <class_name>
F

$$$$
>  <compound>
Oc1c(C(c2ccc(F)cc2)N2CCCCC2)ccc2cncnc12 (stereo unspecified)

>  <class_name>
F

$$$$
>  <compound>
COc1ccc2c3ccnc(C(F)(F)F)c3n(CCCCN)c2c1

>  <class_name>
F

$$$$
>  <compound>
CC1(C)CCC2=C(O1)c1ccccc1C(=Nc1ccc([N+](=O)[O-])cc1)C2=O

>  <class_name>
F

$$$$
>  <compound>
Cc1ccsc1C(NC(=O)c1ccccc1)c1cc(Cl)c2cccnc2c1O (stereo unspecified)

>  <class_name>
F

$$$$
